Kindly find below pKi information for human leukocyte elastase (HLE) (Homo sapiens) taken from the literature.
Please express pKi as -log10 of the molar concentration.

Here's what some known entries look like.
| compound | pKi |
| --- | --- |
| COc1cc(C(C)C)c2c(c1)S(=O)(=O)N(COc1ccnn1-c1ccccc1)C2=O | 9.84 |
| O=C(OCN1C(=O)c2ccccc2S1(=O)=O)c1c(Cl)cncc1Cl | 8.00 |
| COc1cc(C(C)C)c2c(c1)S(=O)(=O)N(COc1cc(C#N)nn1-c1ccc(Cl)cc1)C2=O | 9.72 |
| COc1ccc(COC(=O)c2ccc(COc3cc(C(C)C)c4c(c3)S(=O)(=O)N(COc3cc(C(F)(F)F)nn3-c3ccccc3)C4=O)o2)cc1 | 10.09 |
| COc1cc(C(C)C)c2c(c1)S(=O)(=O)N(COc1cc(-c3ccccc3)nn1-c1ccccc1)C2=O | 9.04 |

query: Please look at `COc1cc(C(C)C)c2c(c1)S(=O)(=O)N(COc1cc(C(F)(F)F)nn1-c1cccc(Cl)c1)C2=O` and tell me its recorded pKi on human leukocyte elastase (HLE) (Homo sapiens).
result: 9.89

query: Recall the reported pKi of `COc1cc(C(C)C)c2c(c1)S(=O)(=O)N(COc1cc(-c3ccccc3)nn1C)C2=O` when tested on human leukocyte elastase (HLE) (Homo sapiens).
result: 9.33

query: Report value: pKi, system: human leukocyte elastase (HLE) (Homo sapiens), compound: `COc1cc(C(C)C)c2c(c1)S(=O)(=O)N(COc1cc(C(F)(F)F)nn1-c1ccc3ccccc3n1)C2=O`
result: 9.82

query: Provide the reported pKi (system: human leukocyte elastase (HLE) (Homo sapiens)) for `CC(C)c1cc(OCC(C)(C)C(=O)O)cc2c1C(=O)N(COc1cc(C(F)(F)F)nn1-c1ccccc1)S2(=O)=O`
result: 9.66

query: # return pKi for `O=C1c2ccccc2S(=O)(=O)N1c1c(F)c(F)nc(F)c1F` , test system: human leukocyte elastase (HLE) (Homo sapiens)
result: 7.70

query: Give pKi for this entry on human leukocyte elastase (HLE) (Homo sapiens): `O=C(OCN1C(=O)c2ccccc2S1(=O)=O)c1ccncc1`
result: 7.40

query: State pKi (human leukocyte elastase (HLE) (Homo sapiens)) of `COc1cc(C(C)C)c2c(c1)S(=O)(=O)N(COc1cc(C#N)nn1-c1ccc(Cl)cc1Cl)C2=O` .
result: 10.24

query: Fill in pKi for `CC(C)c1cc(OCCC(C)(C)C(=O)O)cc2c1C(=O)N(COc1cc(C(F)(F)F)nn1-c1ccccc1)S2(=O)=O` tested with human leukocyte elastase (HLE) (Homo sapiens).
result: 9.74

query: Report pKi on human leukocyte elastase (HLE) (Homo sapiens) for this entry: CC(C)CCC1C(=O)N(COC(=O)c2c(Cl)ccc(OCCN3CCOCC3)c2Cl)S(=O)(=O)N1C (stereo not shown)
result: 9.70

query: Name the recorded pKi of CC(C)CNC(=O)C(=O)C(Cc1ccccc1)NC(=O)C(CC(C)C)NC(=O)OCc1ccccc1 (stereo not shown) , assay system human leukocyte elastase (HLE) (Homo sapiens).
result: 5.00

query: Give measured pKi for `CC(C)c1cc(OCCCCCC(=O)O)cc2c1C(=O)N(COc1cc(C(F)(F)F)nn1-c1ccccc1)S2(=O)=O` (human leukocyte elastase (HLE) (Homo sapiens)).
result: 10.09
